target desc: human GPR119 (Homo sapiens)
Construct: expression vector for human GPR119 cDNA (Acc. No. NP_848566); Min-6/hGPR119
Sequence (Q8TDV5 1-335): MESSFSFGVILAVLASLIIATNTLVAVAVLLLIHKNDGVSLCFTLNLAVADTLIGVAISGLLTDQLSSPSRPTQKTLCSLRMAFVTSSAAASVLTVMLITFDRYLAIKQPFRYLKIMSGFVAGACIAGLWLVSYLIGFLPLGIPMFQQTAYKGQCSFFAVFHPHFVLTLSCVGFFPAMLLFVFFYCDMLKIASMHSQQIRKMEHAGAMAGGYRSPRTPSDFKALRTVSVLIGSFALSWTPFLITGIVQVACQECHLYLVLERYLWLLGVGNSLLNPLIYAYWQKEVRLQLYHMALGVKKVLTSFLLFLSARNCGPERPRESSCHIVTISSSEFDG
assay: AlphaScreen cAMP assay in MIN6 cells stably transfected with human GPR119
run parameters: Min-6/hGPR119 cells, 45 min at room temperature
We label by threshold. Values of EC50 strictly beneath 100 nM are T. Values of 100 nM and up are F.

Asked: Record "CC(C)(C)OC(=O)N1CCC(N(C(=O)c2cnc(-c3ccc(C(=O)N4CCC(O)(C(F)(F)F)CC4)c(F)c3)nc2)C2CC2)CC1" : is its EC50 strictly below 100 nM?
Given back: F

More entries:
Asked: Record "CC(C)(C)OC(=O)N1CCC(N(C(=O)c2noc(-c3ccc(S(C)(=O)=O)cc3F)n2)C2CC2)CC1" : is its EC50 strictly below 100 nM?
Given back: T

Asked: Thanks! And "CC(C)(C)OC(=O)N1CCC(N(C(=O)c2cnc(-c3ccc(C(=O)NC4CCOCC4)cc3F)nc2)C2CC2)CC1" ?
Given back: F

Asked: Thanks! And "CC(C)(C)OC(=O)N1CCC(N(C(=O)c2cc(-c3ccc(C#N)cc3F)no2)C2CC2)CC1" ?
Given back: T

Asked: Thanks! And "CN(CC1(C)COC1)C(=O)Cc1ccc(-c2ncc(C(=O)N(C3CC3)C3CCN(C(=O)OC(C)(C)C)CC3)cn2)cc1" ?
Given back: F

Asked: Thanks! And "CC(C)(C)OC(=O)N1CCC(N(C(=O)c2cnc(-c3ccc(C#N)nc3)nc2)C2CC2)CC1" ?
Given back: T

Asked: Thanks! And "CC(C)(C)OC(=O)N1CCC(N(C(=O)c2cnc(-c3ccc(CC(=O)N4CCCOCC4)cc3)nc2)C2CC2)CC1" ?
Given back: F

Asked: Thanks! And "CC(C)(C)OC(=O)N1CCC(N(C(=O)c2cnc(-c3cnco3)cn2)C2CC2)CC1" ?
Given back: T

Asked: Thanks! And "CC(C)(C)OC(=O)N1CCC(N(C(=O)c2cnc(-c3ccc(C(=O)N4CCCOCC4)cc3)nc2)C2CC2)CC1" ?
Given back: F

Asked: Thanks! And "Cc1ccn(-c2ncc(C(=O)N(C3CC3)C3CCN(C(=O)OC(C)(C)C)CC3)cn2)n1" ?
Given back: F

Asked: Thanks! And "CC(C)(C)OC(=O)N1CCC(N(C(=O)c2cc(-c3ccc(C#N)cc3F)on2)C2CC2)CC1" ?
Given back: T

Asked: Thanks! And "CCNC(=O)c1ccc(-c2nc(C(=O)N(C3CC3)C3CCN(C(=O)OC(C)(C)C)CC3)co2)cc1" ?
Given back: F

Asked: Thanks! And "CCc1nccn1-c1ncc(C(=O)N(C2CC2)C2CCN(C(=O)OC(C)(C)C)CC2)cn1" ?
Given back: T

Asked: Thanks! And "CC(C)(C)OC(=O)N1CCC(N(C(=O)c2ncn(-c3ccc(C#N)cc3F)n2)C2CC2)CC1" ?
Given back: F

Asked: Thanks! And "CC(C)(C)OC(=O)N1CCC(N(C(=O)c2cnc(-c3ccc(CC(=O)N4CCC[C@@H]4C#N)cc3)nc2)C2CC2)CC1" ?
Given back: F
